Biological target: GCN2 (Homo sapiens, UniProt Q9P2K8)
Sequence (Q9P2K8 whole entry): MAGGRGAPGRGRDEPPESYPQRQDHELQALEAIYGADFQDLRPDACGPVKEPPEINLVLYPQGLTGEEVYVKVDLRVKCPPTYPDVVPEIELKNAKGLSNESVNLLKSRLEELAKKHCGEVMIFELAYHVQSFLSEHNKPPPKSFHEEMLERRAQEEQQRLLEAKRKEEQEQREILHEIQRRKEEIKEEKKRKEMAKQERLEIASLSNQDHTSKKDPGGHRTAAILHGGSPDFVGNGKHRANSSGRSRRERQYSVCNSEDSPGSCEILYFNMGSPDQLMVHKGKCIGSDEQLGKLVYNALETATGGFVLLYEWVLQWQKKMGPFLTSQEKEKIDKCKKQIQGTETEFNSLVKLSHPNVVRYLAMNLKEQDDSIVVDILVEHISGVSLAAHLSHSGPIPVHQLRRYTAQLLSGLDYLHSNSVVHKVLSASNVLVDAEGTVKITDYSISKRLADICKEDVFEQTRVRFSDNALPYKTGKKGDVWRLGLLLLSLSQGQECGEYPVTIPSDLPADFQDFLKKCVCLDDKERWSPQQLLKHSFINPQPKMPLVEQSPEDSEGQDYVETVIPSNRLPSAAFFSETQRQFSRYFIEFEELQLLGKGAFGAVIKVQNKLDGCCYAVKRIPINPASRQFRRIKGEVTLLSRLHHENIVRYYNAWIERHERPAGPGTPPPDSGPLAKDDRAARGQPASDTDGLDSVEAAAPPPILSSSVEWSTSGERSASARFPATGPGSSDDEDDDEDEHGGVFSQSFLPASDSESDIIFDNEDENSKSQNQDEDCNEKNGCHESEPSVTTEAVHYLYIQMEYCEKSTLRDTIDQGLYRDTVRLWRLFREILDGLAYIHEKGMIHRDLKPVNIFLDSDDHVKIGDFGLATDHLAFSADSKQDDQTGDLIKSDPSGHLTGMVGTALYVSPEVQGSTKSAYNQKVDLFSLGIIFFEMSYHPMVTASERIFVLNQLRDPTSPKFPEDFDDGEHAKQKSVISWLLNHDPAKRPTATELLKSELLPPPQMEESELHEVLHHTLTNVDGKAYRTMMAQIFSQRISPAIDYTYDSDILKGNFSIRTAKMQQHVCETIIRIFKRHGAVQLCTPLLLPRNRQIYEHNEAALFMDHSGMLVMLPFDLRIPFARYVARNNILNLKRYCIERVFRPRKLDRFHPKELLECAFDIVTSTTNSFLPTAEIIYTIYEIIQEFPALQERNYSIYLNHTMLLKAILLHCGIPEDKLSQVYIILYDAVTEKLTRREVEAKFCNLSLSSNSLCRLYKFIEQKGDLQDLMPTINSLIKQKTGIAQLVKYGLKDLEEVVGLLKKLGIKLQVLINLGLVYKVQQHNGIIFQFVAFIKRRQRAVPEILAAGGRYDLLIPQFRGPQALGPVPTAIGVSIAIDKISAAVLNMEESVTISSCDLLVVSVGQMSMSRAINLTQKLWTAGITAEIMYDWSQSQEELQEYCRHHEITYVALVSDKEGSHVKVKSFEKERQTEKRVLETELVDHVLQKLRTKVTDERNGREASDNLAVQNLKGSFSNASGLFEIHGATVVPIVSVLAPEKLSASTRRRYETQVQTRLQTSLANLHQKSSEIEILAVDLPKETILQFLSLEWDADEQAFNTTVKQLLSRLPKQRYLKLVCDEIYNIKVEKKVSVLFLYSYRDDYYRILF
Assay: TR-FRET biochemical assay for inhibition of GCN2 (Example 106, for Example 1-4BB)
Conditions: Table 9
endpoint-name: IC50

| given-smiles | IC50 |
| --- | --- |
| Cc1ncc(F)cc1S(=O)(=O)Nc1ccc(F)c(-c2ccc3c(C(=O)NCCCO)n[nH]c3c2F)c1F | < 500 nM |
| COc1ncc(F)cc1S(=O)(=O)Nc1ccc(F)c(-c2ccc3c(-c4n[nH]c(=O)[nH]4)n[nH]c3c2F)c1F | < 500 nM |
| O=C1CCc2c1cc(F)cc2S(=O)(=O)Nc1ccc(F)c(-c2ccc3c(C(=O)NCCCO)n[nH]c3c2F)c1F | < 500 nM |
| COc1ncc(Cl)cc1S(=O)(=O)Nc1ccc(F)c(-c2ccc3c(C(=O)Nc4cnoc4)n[nH]c3c2F)c1F | < 500 nM |
| COc1ncc(Cl)cc1S(=O)(=O)Nc1ccc(F)c(-c2ccc3c(C(=O)Nc4c[nH]nc4C)n[nH]c3c2F)c1F | < 500 nM |
| COc1ncncc1S(=O)(=O)Nc1ccc(F)c(-c2ccc3c(C(=O)NCCCO)n[nH]c3c2F)c1F | > 10000 nM |

For COc1ncncc1S(=O)(=O)Nc1ccc(F)c(-c2ccc3c(-c4ncc[nH]4)n[nH]c3c2F)c1F , what is its reported IC50? 500 to 2500 nM

* * *

The entries below come with measured pIC50 values attached.
Molecular target: GCN2 (Homo sapiens)
Assay: TR-FRET biochemical assay for inhibition of GCN2 (Example 106, for Example 1-4BB)
Details: Table 9
pIC50: −log10 of the molar value.

| molecule | pIC50 |
| --- | --- |
| Cc1ncc(S(=O)(=O)Nc2cc(F)cc(-c3ccc4c(-c5ncc[nH]5)n[nH]c4c3F)c2F)s1 [Example 3CJ] | 5.60 to 6.30 |
| COc1ccc(NS(=O)(=O)c2cc(F)cnc2OC)c(F)c1-c1ccc2c(C(=O)NCCCO)n[nH]c2c1F [Example 25] | 5.00 to 5.60 |
| COc1nc(C)c(Cl)cc1S(=O)(=O)Nc1ccc(F)c(-c2ccc3c(C(=O)NCCCN(C)C)n[nH]c3c2F)c1F [Example 3DN] | > 6.30 |
| COc1ncc(Cl)cc1S(=O)(=O)Nc1ccc(F)c(-c2ccc3c(C(=O)N[C@H]4CCN(C)C4)n[nH]c3c2F)c1F [Example 3AF] | > 6.30 |
| COc1ncc(Cl)cc1S(=O)(=O)Nc1ccc(F)c(-c2ccc3c(C(=O)Nc4nnn(C)n4)n[nH]c3c2F)c1F [Example 3CZ] | 5.60 to 6.30 |

For COc1ncc(F)cc1S(=O)(=O)Nc1ncc(F)c(-c2ccc3c(C(N)=O)n[nH]c3c2)c1F [Example 3P] , what is its reported pIC50? < 5.00

For COc1ncc(F)cc1S(=O)(=O)Nc1ccc(F)c(-c2ccc3c(C(=O)NCC[C@@H](O)CO)n[nH]c3c2F)c1F [Example 3BF] , what is its reported pIC50? > 6.30

* * *

Target: GCN2 (Homo sapiens, UniProt Q9P2K8)
Assay: TR-FRET biochemical assay for inhibition of GCN2 (Example 106, for Example 1-4BB)
Conditions: Table 8
pIC50: −log10 of the molar value.
The entries below come with measured pIC50 values attached.

// solved cases for pIC50 follow
| given-smiles | endpoint-name | obs-value |
| --- | --- | --- |
| COc1ncc(Cl)cc1S(=O)(=O)Nc1cccc(-c2ccc3c(-c4ncc[nH]4)n[nH]c3c2F)c1F | pIC50 | > 6.30 |
| COc1ncc(Cl)cc1S(=O)(=O)Nc1ccc(F)c(-c2ccc3c(-c4ncc[nH]4)n[nH]c3c2F)c1 | pIC50 | > 6.30 |
| COc1ccc(S(=O)(=O)Nc2ccc(F)c(-c3ccc4c(-c5ncc[nH]5)n[nH]c4c3F)c2F)cc1 | pIC50 | 5.60 to 6.30 |
| Cn1cc(S(=O)(=O)Nc2ccc(F)c(-c3ccc4c(-c5ncc[nH]5)n[nH]c4c3F)c2F)cn1 | pIC50 | 5.00 to 5.60 |
| COc1ccc(Cl)c(S(=O)(=O)Nc2ccc(F)c(-c3ccc4c(-c5ncc[nH]5)n[nH]c4c3F)c2F)c1 | pIC50 | > 6.30 |
| Cc1cccc(F)c1S(=O)(=O)Nc1ccc(F)c(-c2ccc3c(-c4ncc[nH]4)n[nH]c3c2F)c1F | pIC50 | > 6.30 |

For O=S(=O)(Nc1ccc(F)c(-c2ccc3c(-c4ncc[nH]4)n[nH]c3c2F)c1F)c1cccc(Cl)c1Cl , what is its reported pIC50? > 6.30

For COc1ncc(Cl)cc1S(=O)(=O)Nc1ccnc(-c2ccc3c(-c4ncc[nH]4)n[nH]c3c2)c1F , what is its reported pIC50? > 6.30

For COc1ncc(Cl)cc1S(=O)(=O)Nc1ccc(F)c(-c2ccc3c(C(=O)NCCCO)n[nH]c3c2F)c1F , what is its reported pIC50? > 6.30

For O=S(=O)(Nc1ccc(F)c(-c2ccc3cn[nH]c3c2)c1F)c1cc(Cl)ccc1Cl , what is its reported pIC50? 5.60 to 6.30

For Cc1n[nH]c2cc(-c3c(F)ccc(NS(=O)(=O)c4cc(F)ccc4F)c3F)ccc12 , what is its reported pIC50? 5.00 to 5.60

For Cc1nn(C)cc1S(=O)(=O)Nc1cccc(-c2ccc3c(-c4ncc[nH]4)n[nH]c3c2F)c1F , what is its reported pIC50? 5.00 to 5.60

For COc1cccc(S(=O)(=O)Nc2ccc(F)c(-c3ccc4c(-c5ncc[nH]5)n[nH]c4c3F)c2F)c1C , what is its reported pIC50? 5.60 to 6.30

For O=S(=O)(Nc1ccc(F)c(-c2ccc3c(-c4ncc[nH]4)n[nH]c3c2F)c1F)c1cncc(Cl)c1 , what is its reported pIC50? > 6.30

For Cc1nn(C)c(C)c1S(=O)(=O)Nc1ccc(F)c(-c2ccc3c(-c4ncc[nH]4)n[nH]c3c2F)c1F , what is its reported pIC50? 5.60 to 6.30

* * *

Molecular target: GCN2 (Homo sapiens)
Assay: TR-FRET biochemical assay for inhibition of GCN2 (Example 106, for Example 1-4BB)
Settings: Table 8
endpoint-name: IC50

| compound | obs-value |
| --- | --- |
| Cc1nn(C(F)F)cc1S(=O)(=O)Nc1ccc(F)c(-c2ccc3c(-c4ncc[nH]4)n[nH]c3c2F)c1F [Example 2BU] | < 500 nM |
| CC(C)c1ccc(S(=O)(=O)Nc2ccc(F)c(-c3ccc4c(-c5ncc[nH]5)n[nH]c4c3F)c2F)cc1 [Example 2G] | > 10000 nM |
| O=S(=O)(Nc1ccc(F)c(-c2ccc3c(-c4ncc[nH]4)n[nH]c3c2F)c1F)c1ccc(F)cc1Cl [Example 2BS] | < 500 nM |
| N#Cc1cccc(S(=O)(=O)Nc2ccc(F)c(-c3ccc4c(-c5ncc[nH]5)n[nH]c4c3F)c2F)c1 [Example 2BQ] | < 500 nM |
| O=S(=O)(Nc1ccc(F)c(-c2ccc3c(-c4ncc[nH]4)n[nH]c3c2F)c1F)c1cccnc1CO [Example 2Q] | 500 to 2500 nM |

For COC(=O)c1ccc(Cl)cc1S(=O)(=O)Nc1ccc(F)c(-c2ccc3c(-c4ncc[nH]4)n[nH]c3c2F)c1F [Example 2BC] , what is its reported IC50? < 500 nM

For Cn1ccnc1S(=O)(=O)Nc1ccc(F)c(-c2ccc3c(-c4ncc[nH]4)n[nH]c3c2F)c1F [Example 2S] , what is its reported IC50? 2500 to 10000 nM

* * *

Biological target: GCN2 (Homo sapiens, UniProt Q9P2K8)
Assay: TR-FRET biochemical assay for inhibition of GCN2 (Example 106, for Example 1-4BB)
Settings: Table 9
The entries below come with measured IC50 values attached.

// solved cases for IC50 follow
| compound | obs-value |
| --- | --- |
| Cn1cc(NC(=O)c2n[nH]c3c(F)c(-c4c(F)ccc(NS(=O)(=O)c5cc(F)cc6c5CCC6O)c4F)ccc23)cn1 (centres unmarked) [Example 4AI] | < 500 nM |
| COc1ncc(F)cc1S(=O)(=O)Nc1ccc(C#N)c(-c2ccc3c(C(=O)NCCCO)n[nH]c3c2F)c1F [Example 3CA] | < 500 nM |
| NC(=O)c1n[nH]c2c(F)c(-c3c(F)ccc(NS(=O)(=O)c4cc(F)cc5c4CCC5=O)c3F)ccc12 [Example 4S] | < 500 nM |
| COc1ncc(F)cc1S(=O)(=O)Nc1cccc(-c2ccc3c(C(=O)NCC[C@@H](O)CO)n[nH]c3c2F)c1F [Example 3BH] | 500 to 2500 nM |
| O=C(Nc1cnn(CCO)c1)c1n[nH]c2c(F)c(-c3c(F)ccc(NS(=O)(=O)c4cc(F)cc(CO)c4Cl)c3F)ccc12 [Example 4AC] | < 500 nM |

For COc1ncc(F)cc1S(=O)(=O)Nc1cccc(-c2ccc3c(C4CCC(=O)N4)n[nH]c3c2F)c1F (centres unmarked) [Example 12] , what is its reported IC50? > 10000 nM

For O=C1CCc2c1cc(F)cc2S(=O)(=O)Nc1ccc(F)c(-c2ccc3c(C(=O)Nc4cn[nH]c4)n[nH]c3c2F)c1F [Example 4AD] , what is its reported IC50? < 500 nM

For COc1ncccc1S(=O)(=O)Nc1ccc(F)c(-c2ccc3c(C(=O)NCCCO)n[nH]c3c2F)c1F [Example 3BI] , what is its reported IC50? 500 to 2500 nM

For COc1ncc(F)cc1S(=O)(=O)Nc1ccc(F)c(-c2ccc3c(C(=O)Nc4cn[nH]c4)n[nH]c3c2F)c1F [Example 3BO] , what is its reported IC50? < 500 nM

For COc1ncc(F)cc1S(=O)(=O)Nc1ccc(F)c(-c2ccc3c(C(=O)NCCCNC(C)=O)n[nH]c3c2F)c1F [Example 3AV] , what is its reported IC50? < 500 nM
